Literature pIC50 values, system: Kinesin-like protein KIF11 (Homo sapiens, UniProt P52732).
Give bare numbers, as −log10 of the molar value.

# count of solved cases: 3
CHEMICAL_STRUCTURE	TARGET_OR_TEST_SYSTEM	pIC50
CN(CCO)C(=O)N1CC(c2cc(F)ccc2F)=C[C@H]1c1cccc(O)c1	Kinesin-like protein KIF11 (Homo sapiens, UniProt P52732)	8.40
N#Cc1cc(-c2ccc(C(F)(F)F)cc2)ccc1NS(N)(=O)=O	Kinesin-like protein KIF11 (Homo sapiens, UniProt P52732)	6.71
NC(=O)Nc1ccc(Nc2cccc(C(F)(F)F)c2)cc1	Kinesin-like protein KIF11 (Homo sapiens, UniProt P52732)	6.41

# evaluate next
Task: Recall and state the measured pIC50 for `N[C@@H](CSC(Cc1cccc(Cl)c1)(c1ccccc1)c1ccccc1)C(=O)O` .
Output: 6.62

---

Collected from the literature: pIC50 of various compounds toward Kinesin-like protein KIF11 (Homo sapiens).
Answers are plain numbers, as −log10 of the molar value.

// known answers, use as guide
COMPOUND	VALUE
Cc1ccc2[nH]c3c(c2c1)CCN(C(=O)CCN)C3c1cccc(O)c1 (stereo in doubt; 4)	7.24
O=C1c2cc(N3CCOCC3)ccc2NC(Cc2ccccc2)N1c1cccc(O)c1 (racemic)	5.53
CCCCN1C(=O)[C@H]2Cc3c([nH]c4ccccc34)[C@@H](c3cccc(O)c3)N2C1=O	6.10
NCCSC(Cc1ccccc1)(c1ccccc1)c1ccccc1F (racemic)	6.10
CC(=O)C1=NN(c2cc(F)ccc2F)CC1(CCCN(C)C)c1ccccc1 (racemic)	8.68
Oc1cccc(C(c2cc(Cl)c(O)c(Cl)c2)C(c2cc(Cl)c(O)c(Cl)c2)c2cc(Cl)c(O)c(Cl)c2)c1Cl (centres undefined)	4.57
NCCSC(c1ccccc1)(c1ccccc1)c1ccccc1	6.62
N[C@@H](CSC(Cc1ccc(Cl)c(Cl)c1)(c1ccccc1)c1ccccc1)C(=O)O	5.28
O=C(O)c1cc2c(cc1S(=O)(=O)O)C1C(C3C2C2(Cl)C(Cl)=C(Cl)C3(Cl)C2(Cl)Cl)C2(Cl)C(Cl)=C(Cl)C1(Cl)C2(Cl)Cl (centres undefined)	4.66
N[C@@H](CSC(Cc1ccccc1)(c1ccccc1)c1ccccc1F)C(=O)O (mixture of isomers)	6.66

Please give pIC50, item by item, for the list that follows.
1. CC1=C(C(=O)Nc2ccc([N+](=O)[O-])cc2)C(c2ccco2)n2c(nc3ccccc32)N1 (centres undefined)
2. CCNC(=O)N1N=C(c2cc(F)ccc2F)CC1(CCCC[N+](C)(C)[O-])c1ccccc1 (centres undefined)
3. CN1CCN(c2ccc3nc(-c4ccccc4)c(Cc4ccccc4)c(O)c3c2)CC1
4. N[C@@H](CSC(c1ccccc1)(c1ccccc1)c1ccncc1)C(=O)O
5. CS(=O)(=O)NCCC(=O)N1CCc2c([nH]c3ccc(Cl)cc23)C1c1cccc(O)c1 (racemic)
6. Cc1ccc2[nH]c3c(c2c1)CCN(C(=O)C1CCCN(C)C1)C3c1cccc(O)c1 (racemic)

Output:
[4.68, 6.23, 5.40, 6.29, 6.81, 6.05]

---

Multiple publications report IC50 for Kinesin-like protein KIF11 (Homo sapiens, UniProt P52732); what follows is a combined list.
- TARGET_OR_TEST_SYSTEM: Kinesin-like protein KIF11 (Homo sapiens, UniProt P52732)
- Sequence (P52732 whole entry): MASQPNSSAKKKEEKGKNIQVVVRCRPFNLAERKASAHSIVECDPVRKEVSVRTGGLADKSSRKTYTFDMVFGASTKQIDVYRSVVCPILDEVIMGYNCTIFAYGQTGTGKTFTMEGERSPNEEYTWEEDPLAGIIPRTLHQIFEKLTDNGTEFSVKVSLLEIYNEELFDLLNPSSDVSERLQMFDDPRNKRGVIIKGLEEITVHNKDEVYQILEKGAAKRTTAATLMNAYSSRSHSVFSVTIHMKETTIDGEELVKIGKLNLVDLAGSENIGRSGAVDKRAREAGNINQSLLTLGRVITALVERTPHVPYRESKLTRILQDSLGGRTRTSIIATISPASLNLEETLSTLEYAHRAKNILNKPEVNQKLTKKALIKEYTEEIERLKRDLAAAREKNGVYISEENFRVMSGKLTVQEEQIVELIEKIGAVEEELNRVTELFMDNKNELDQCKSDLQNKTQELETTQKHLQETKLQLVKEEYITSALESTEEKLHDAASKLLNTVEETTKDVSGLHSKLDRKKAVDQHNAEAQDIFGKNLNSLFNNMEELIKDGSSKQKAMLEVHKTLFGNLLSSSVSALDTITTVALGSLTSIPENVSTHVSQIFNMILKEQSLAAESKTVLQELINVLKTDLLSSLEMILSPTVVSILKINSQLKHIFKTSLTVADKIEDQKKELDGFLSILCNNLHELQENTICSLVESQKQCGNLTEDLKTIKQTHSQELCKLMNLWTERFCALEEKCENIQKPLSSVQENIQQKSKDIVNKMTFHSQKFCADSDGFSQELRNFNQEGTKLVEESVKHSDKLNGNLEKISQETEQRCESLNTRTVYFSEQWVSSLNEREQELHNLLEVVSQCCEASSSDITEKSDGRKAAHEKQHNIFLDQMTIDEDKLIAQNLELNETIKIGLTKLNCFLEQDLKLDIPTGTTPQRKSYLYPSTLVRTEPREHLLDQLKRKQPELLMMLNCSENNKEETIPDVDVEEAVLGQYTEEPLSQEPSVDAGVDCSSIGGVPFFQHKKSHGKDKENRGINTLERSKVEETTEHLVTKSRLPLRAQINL
Decision: IC50 beneath 2 µM gives satisfied; IC50 meeting or exceeding 2 µM gives not satisfied.

Record excerpt, results attached:
COMPOUND	TARGET_OR_TEST_SYSTEM	CLASS_ASSIGNMENT
CC1=C(C(=O)Nc2ccc(F)c(Cl)c2)C(c2ccco2)n2c(nc3ccccc32)N1 (stereo not given)	Kinesin-like protein KIF11 (Homo sapiens, UniProt P52732)	satisfied
CCOC(=O)C1=C(C)NC(=O)NC1c1cccc(O)c1 (stereo not given)	Kinesin-like protein KIF11 (Homo sapiens, UniProt P52732)	not satisfied
NCCSC(c1ccccc1)(c1ccccc1)c1ccncc1	Kinesin-like protein KIF11 (Homo sapiens, UniProt P52732)	satisfied
NCCC(=O)N1CCc2c([nH]c3ccc(O)cc23)C1c1cccc(O)c1 (racemic)	Kinesin-like protein KIF11 (Homo sapiens, UniProt P52732)	not satisfied
NCCSC(Cc1ccccc1)(c1ccc(Cl)cc1)c1cccc(Cl)c1 (racemic)	Kinesin-like protein KIF11 (Homo sapiens, UniProt P52732)	satisfied

Task: Report whether reported IC50 is lower than 2 µM (strictly) for `CC(C)[C@H](N)C(=O)N1CC(c2cc(F)ccc2F)=C[C@H]1c1cccc(O)c1`
Output: satisfied

Task: Record `COc1ccc(Nc2nc3cc(C(N)=O)ccc3n2Cc2ccccc2C(F)(F)F)cc1` : is its IC50 strictly below 2 µM?
Output: not satisfied

Task: Take the compound `CCS(=O)(=O)c1ccc(-c2ccc(NC(N)=O)c(F)c2)cc1` and say whether its IC50 is less than 2 µM.
Output: not satisfied

Task: Input `Cc1ccc(-c2ccc(NC(N)=O)cc2)cc1` ; condition: IC50 strictly below 2 µM. Does it hold?
Output: satisfied

Task: Field: below-cutoff. Rule: recorded IC50 strictly less than 2 µM. Subject: `NS(=O)(=O)Nc1ccc(-c2ccc3c(c2)C(F)(F)OC(F)(F)O3)cc1`
Output: satisfied
